test system: L. braziliensis; assay: Leishmania high content assay, intracellular amastigotes in PMA-differentiated THP-1 macrophages; format: cell-based, Leishmania braziliensis (MHOM/BR/1975/M2903); settings: Leishmania braziliensis, THP-1; confirmatory dose-response screen, values in text; read-out: EC50
pEC50: −log10 of the molar value.
MEASURE NAME: pEC50

COMPOUND: COc1ccccc1OCCNCC(O)COc1cccc2[nH]c3ccccc3c12 (stereo not shown)
NUMBER: 4.79

====

system: L. donovani; test: Leishmania high content assay, intracellular amastigotes in PMA-differentiated THP-1 macrophages; type: cell-based, Leishmania donovani (MHOM/IN/1980/DD8); conditions: THP-1, confirmatory dose-response, mean of two independent experiments, pEC50 = -log EC50 (M), read-out: pEC50 M L. d (converted)
MEASURE NAME: EC50 (M)

INPUT SMILES: CN(C)CCCN1c2ccccc2Sc2ccc(C(F)(F)F)cc21
MEASURE NAME: EC50
NUMBER: 2.82e-05
//
INPUT SMILES: CCCCCCCCCCCCCCCCCCOP(=O)([O-])OC1CC[N+](C)(C)CC1
MEASURE NAME: EC50
NUMBER: 2.75e-05
//
INPUT SMILES: CN1C[C@H](CNC(=O)OCc2ccccc2)C[C@@H]2c3cccc4c3c(cn4C)C[C@H]21
MEASURE NAME: EC50
NUMBER: 3.24e-05
